Reference source: patent US20210070748A1

target: EGFR (Homo sapiens); assay: Inhibition of a panel of kinases, in vitro HotSpot kinase assay: EGFR; type: biochemical; conditions: Table 13, A compounds; 1 μM ATP
Sequence (P00533 25-1210): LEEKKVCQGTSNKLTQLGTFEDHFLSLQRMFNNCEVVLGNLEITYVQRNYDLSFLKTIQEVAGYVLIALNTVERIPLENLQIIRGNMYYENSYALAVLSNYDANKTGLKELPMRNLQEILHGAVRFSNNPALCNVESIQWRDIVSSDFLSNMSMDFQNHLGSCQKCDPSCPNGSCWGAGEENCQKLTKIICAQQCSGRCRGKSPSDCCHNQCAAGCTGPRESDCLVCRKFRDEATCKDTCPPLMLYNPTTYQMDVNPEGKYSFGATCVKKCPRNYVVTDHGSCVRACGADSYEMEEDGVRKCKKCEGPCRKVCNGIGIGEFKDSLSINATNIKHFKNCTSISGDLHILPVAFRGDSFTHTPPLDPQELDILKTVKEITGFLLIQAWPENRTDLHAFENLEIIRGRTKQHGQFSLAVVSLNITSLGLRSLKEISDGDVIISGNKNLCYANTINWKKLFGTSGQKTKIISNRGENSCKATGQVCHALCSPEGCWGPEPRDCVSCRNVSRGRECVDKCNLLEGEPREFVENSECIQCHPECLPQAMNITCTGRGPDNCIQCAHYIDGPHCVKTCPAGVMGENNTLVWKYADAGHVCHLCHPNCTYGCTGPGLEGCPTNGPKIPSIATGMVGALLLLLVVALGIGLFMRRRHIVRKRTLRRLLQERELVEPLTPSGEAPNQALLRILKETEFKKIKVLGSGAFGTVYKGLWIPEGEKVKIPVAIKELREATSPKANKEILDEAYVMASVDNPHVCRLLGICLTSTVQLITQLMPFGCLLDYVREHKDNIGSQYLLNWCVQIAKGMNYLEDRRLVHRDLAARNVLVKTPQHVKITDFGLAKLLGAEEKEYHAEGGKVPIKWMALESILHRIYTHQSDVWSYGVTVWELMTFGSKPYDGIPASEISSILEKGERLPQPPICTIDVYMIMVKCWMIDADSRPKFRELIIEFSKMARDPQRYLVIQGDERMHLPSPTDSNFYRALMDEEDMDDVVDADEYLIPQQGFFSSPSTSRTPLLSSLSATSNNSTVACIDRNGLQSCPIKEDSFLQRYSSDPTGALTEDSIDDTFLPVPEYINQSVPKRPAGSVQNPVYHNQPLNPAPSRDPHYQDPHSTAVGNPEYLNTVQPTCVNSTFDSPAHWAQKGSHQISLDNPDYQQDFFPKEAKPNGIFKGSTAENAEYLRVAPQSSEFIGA
pIC50: −log10 of the molar value.
Here, each record is paired with measured pIC50 data.

record smiles: C[C@@H]1[C@H](NC(=O)N(C)C)CCCN1c1cnc(C(N)=O)c(Nc2ccc(N3CCN(C)CC3)cc2)n1
system under test: EGFR (Homo sapiens)
value kind: pIC50
obs value: 6.00 to 7.00
--
record smiles: C[C@@H]1[C@H](NC(=O)c2ccc(C3CC3)cc2)CCCN1c1cnc(C(N)=O)c(Nc2ccc(N3CCN(C)CC3)cc2)n1
system under test: EGFR (Homo sapiens)
value kind: pIC50
obs value: 6.00 to 7.00
--
record smiles: C[C@@H]1[C@H](NC(=O)c2ccc(C3CC3)cc2)CCCN1c1cnc(C(N)=O)c(Nc2cc(CN3CCCCC3)ns2)n1
system under test: EGFR (Homo sapiens)
value kind: pIC50
obs value: 5.00 to 6.00
--
record smiles: Cc1nn(C)cc1Nc1nc(N2CCC[C@@H](NC(=O)c3ccc(C4CC4)cc3)[C@H]2C)cnc1C(N)=O
system under test: EGFR (Homo sapiens)
value kind: pIC50
obs value: 5.00 to 6.00
--
record smiles: CN1CCN(c2ccc(Nc3nc(N4CCC[C@@H](n5ccc6cc(C7CC7)ccc6c5=O)C4)cnc3C(N)=O)cc2)CC1
system under test: EGFR (Homo sapiens)
value kind: pIC50
obs value: < 5.00
--
record smiles: C[C@@H]1[C@H](NC(=O)c2ccc(C3CC3)cc2F)CCCN1c1cnc(C(N)=O)c(Nc2ccc(N3CCN(C4CCCC4)CC3)cc2)n1
system under test: EGFR (Homo sapiens)
value kind: pIC50
obs value: 6.00 to 7.00
--
record smiles: C[C@@H]1[C@H](NC(=O)c2ccc(C3CC3)cc2F)CCCN1c1cnc(C(N)=O)c(Nc2ccc(S(=O)(=O)N3CCN(C)CC3)cc2)n1
system under test: EGFR (Homo sapiens)
value kind: pIC50
obs value: 5.00 to 6.00
--
record smiles: C[C@@H]1[C@H](NC(=O)c2ccc(C3CC3)cc2F)CCCN1c1cnc(C(N)=O)c(Nc2ccc(N3CCN(C)CC3)nc2)n1
system under test: EGFR (Homo sapiens)
value kind: pIC50
obs value: 5.00 to 6.00
--
record smiles: C[C@@H]1[C@H](NC(=O)c2ccc(C3CC3)cc2F)CCCN1c1cnc(C(N)=O)c(Nc2ccc(C3(C)CCN(C4CC4)CC3)cc2)n1
system under test: EGFR (Homo sapiens)
value kind: pIC50
obs value: 6.00 to 7.00
--
record smiles: C[C@@H]1[C@H](NC(=O)c2ccc(C3CC3)cc2F)CCCN1c1cnc(C(N)=O)c(Nc2ccc(S(=O)(=O)N3CCCC3)cc2)n1
system under test: EGFR (Homo sapiens)
value kind: pIC50
obs value: 5.00 to 6.00

Here's the next entry for you.
// fetch EGFR (Homo sapiens) pIC50 for C[C@@H]1[C@H](NC(=O)c2ccc(C3CC3)c(Cl)c2)CCCN1c1cnc(C(N)=O)c(Nc2ccc(N3CCN(C)CC3)cc2)n1
5.00 to 6.00

====

target: TEC (Homo sapiens, UniProt P42680); experiment: Inhibition of a panel of kinases, in vitro HotSpot kinase assay: TEC; format: biochemical; details: D-compounds panel data; 1 μM ATP
Sequence (P42680 whole entry): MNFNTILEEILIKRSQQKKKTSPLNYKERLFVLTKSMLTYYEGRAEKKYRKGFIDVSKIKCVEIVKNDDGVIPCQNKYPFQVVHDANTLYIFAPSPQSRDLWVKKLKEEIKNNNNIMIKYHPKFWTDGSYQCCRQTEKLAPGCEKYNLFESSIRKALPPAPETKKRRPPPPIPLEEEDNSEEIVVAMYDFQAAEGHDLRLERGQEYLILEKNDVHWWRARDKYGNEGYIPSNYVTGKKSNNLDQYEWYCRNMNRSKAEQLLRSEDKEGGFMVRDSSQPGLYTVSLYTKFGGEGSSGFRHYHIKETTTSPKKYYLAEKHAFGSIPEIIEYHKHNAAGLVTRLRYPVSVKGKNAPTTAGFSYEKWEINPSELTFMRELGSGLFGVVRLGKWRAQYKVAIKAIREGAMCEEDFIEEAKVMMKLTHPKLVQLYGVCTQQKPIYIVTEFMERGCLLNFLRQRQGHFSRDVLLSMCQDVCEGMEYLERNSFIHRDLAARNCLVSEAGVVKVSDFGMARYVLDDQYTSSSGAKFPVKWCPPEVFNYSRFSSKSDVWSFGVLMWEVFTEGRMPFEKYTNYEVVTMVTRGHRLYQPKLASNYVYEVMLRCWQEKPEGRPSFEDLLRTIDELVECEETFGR
Here, each record is paired with measured IC50 data.

Answered examples (5):
molecule: C[C@@H]1[C@H](NC(=O)c2cc(C(C)(C)C)n[nH]2)CCCN1c1cnc(C(N)=O)c(Nc2cnn(C)c2)n1 [Example D-244]
system under test: TEC (Homo sapiens, UniProt P42680)
IC50: 10 to 100 nM
--
molecule: C[C@@H]1[C@H](NC(=O)N(C)C)CCCN1c1cnc(C(N)=O)c(Nc2ccc(N3CCN(C)CC3)cc2F)n1 [Example D-52]
system under test: TEC (Homo sapiens, UniProt P42680)
IC50: 100 to 1000 nM
--
molecule: C[C@@H]1[C@H](NC(=O)c2ccc(C3CC3)cc2F)CCCN1c1cnc(C(N)=O)c(Nc2ccc(C3(C)CCN(C4CCCC4)CC3)cc2)n1 [Example D-66]
system under test: TEC (Homo sapiens, UniProt P42680)
IC50: ≤ 10 nM
--
molecule: C[C@H]1CC[C@@H](NC(=O)c2ccc(C3CC3)cc2)CN1c1cnc(C(N)=O)c(Nc2ccc(N3CCN(C)CC3)c(F)c2)n1 [Example D-150]
system under test: TEC (Homo sapiens, UniProt P42680)
IC50: ≤ 10 nM
--
molecule: C[C@H]1CC[C@@H](NC(=O)N(C)C)CN1c1cnc(C(N)=O)c(Nc2cnn(C)c2)n1 [Example D-152]
system under test: TEC (Homo sapiens, UniProt P42680)
IC50: 10 to 100 nM

Fill blank: measured IC50 of the molecule C[C@@H]1[C@H](n2ccc3cc(C4CC4)ccc3c2=O)CCCN1c1cnc(C(N)=O)c(Nc2ccc(N3CCN(C)CC3)cc2)n1 [Example D-6] is ____.
10 to 100 nM

How about this molecule: C[C@@H]1[C@H](NC(=O)c2ccc(C3CC3)cc2F)CCCN1c1cnc(C(N)=O)c(Nc2cc(CN3CCOCC3)ns2)n1 [Example D-173]
10 to 100 nM

How about this molecule: C[C@@H]1[C@H](NC(=O)c2ccc(C3CC3)cc2)CCCN1c1cnc(C(N)=O)c(Nc2cnn(CCO)c2)n1 [Example D-281]
10 to 100 nM

====

molecular target: JAK3 (Homo sapiens, UniProt P52333); assay: Inhibition of a panel of kinases, in vitro HotSpot kinase assay: JAK3; type: biochemical; settings: D-compounds panel data; 1 μM ATP; read-out: IC50 JAK3
Sequence (P52333 whole entry): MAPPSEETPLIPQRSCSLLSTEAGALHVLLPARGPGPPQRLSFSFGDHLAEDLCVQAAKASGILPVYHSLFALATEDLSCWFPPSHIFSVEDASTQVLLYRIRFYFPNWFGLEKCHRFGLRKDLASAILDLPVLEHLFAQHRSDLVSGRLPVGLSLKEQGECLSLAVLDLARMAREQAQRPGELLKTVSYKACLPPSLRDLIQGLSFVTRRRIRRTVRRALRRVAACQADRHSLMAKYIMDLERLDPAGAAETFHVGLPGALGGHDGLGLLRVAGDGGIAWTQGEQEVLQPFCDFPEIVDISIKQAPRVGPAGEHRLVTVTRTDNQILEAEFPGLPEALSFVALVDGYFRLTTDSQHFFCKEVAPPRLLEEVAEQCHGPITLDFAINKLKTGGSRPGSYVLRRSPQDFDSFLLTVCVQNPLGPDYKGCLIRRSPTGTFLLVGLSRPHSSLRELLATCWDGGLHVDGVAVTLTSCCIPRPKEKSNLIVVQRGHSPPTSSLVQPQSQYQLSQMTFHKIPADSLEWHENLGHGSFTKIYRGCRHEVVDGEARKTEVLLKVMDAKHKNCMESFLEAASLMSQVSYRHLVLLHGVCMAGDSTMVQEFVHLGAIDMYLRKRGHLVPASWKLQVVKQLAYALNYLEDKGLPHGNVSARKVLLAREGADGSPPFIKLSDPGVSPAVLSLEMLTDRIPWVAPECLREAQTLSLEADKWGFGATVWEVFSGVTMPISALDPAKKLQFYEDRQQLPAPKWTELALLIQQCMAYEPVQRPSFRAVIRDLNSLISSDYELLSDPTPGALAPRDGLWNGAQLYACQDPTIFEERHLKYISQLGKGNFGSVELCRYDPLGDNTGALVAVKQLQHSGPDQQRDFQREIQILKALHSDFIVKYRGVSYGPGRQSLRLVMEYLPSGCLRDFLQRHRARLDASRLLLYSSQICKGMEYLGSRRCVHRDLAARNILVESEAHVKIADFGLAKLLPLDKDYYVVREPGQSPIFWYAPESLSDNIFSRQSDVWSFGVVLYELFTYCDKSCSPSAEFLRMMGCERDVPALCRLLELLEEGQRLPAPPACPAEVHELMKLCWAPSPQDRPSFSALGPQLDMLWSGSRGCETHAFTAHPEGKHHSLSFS
value kind: IC50

Answered examples (5):
record smiles: C[C@@H]1[C@H](NC(=O)c2ccc(C(C)(C)O)nc2)CCCN1c1nnc(C(N)=O)c(Nc2cnn(C)c2)n1
obs value: 100 to 1000 nM

record smiles: C[C@@H]1[C@H](NC(=O)c2ccc(C3CC3)c(O)c2)CCCN1c1cnc(C(N)=O)c(Nc2cnn(C)c2)n1
obs value: 100 to 1000 nM

record smiles: C[C@@H]1[C@H](NC(=O)c2ccc(C3CC3)cc2)CCCN1c1cnc(C(N)=O)c(Nc2ccc(OC(F)(F)F)cc2)n1
obs value: > 10000 nM

record smiles: C[C@@H]1[C@H](NC(=O)c2ccc(C3CC3)cc2F)CCCN1c1cnc(C(N)=O)c(Nc2ccc(C3(C)CCN(C4CCCC4)CC3)cc2)n1
obs value: 100 to 1000 nM

record smiles: C[C@@H]1[C@H](NC(=O)c2ccc(C3CC3)cc2F)CCCN1c1cnc(C(N)=O)c(Nc2ccc(N3CCOCC3)cc2)n1
obs value: > 10000 nM

Here's the next entry for you.
Fill blank: measured IC50 of the molecule C[C@H]1CC[C@@H](NC(=O)c2ccc(C3CC3)cc2)CN1c1cnc(C(N)=O)c(Nc2ccc(N3CCN(C)CC3)c(F)c2)n1 is ____.
1000 to 10000 nM

====

Here, each record is paired with measured pIC50 data.
biological target: ITK (Homo sapiens, UniProt Q08881); experiment: Inhibition of a panel of kinases, in vitro HotSpot kinase assay: ITK; type: biochemical; settings: Table 15, C compounds; 1 μM ATP
pIC50: −log10 of the molar value.

record smiles: C=CC(=O)N1CCC[C@@H](Nc2nnc(C(N)=O)c(Nc3ccc4ncsc4c3)n2)C1
pIC50: ≥ 8.00

record smiles: C=CC(=O)N1CC[C@@H](N(C)c2cnc(C(N)=O)c(Nc3ccc(C4(C)CCN(C5CCCC5)CC4)cc3)n2)C1
pIC50: ≥ 8.00

record smiles: C=CC(=O)N1CCC[C@@H](Nc2nnc(C(N)=O)c(Nc3ccc(N4CCOCC4=O)cc3)n2)C1
pIC50: ≥ 8.00

record smiles: C=CC(=O)N1CCC[C@@H](N(C)c2cnc(C(N)=O)c(Nc3ccc(C(C)C)cc3)n2)C1
pIC50: 7.00 to 8.00

Here's the next entry for you.
Fill blank: measured pIC50 of the molecule C=CC(=O)N1CCC[C@@H](Nc2nnc(C(N)=O)c(Nc3ccc(-c4nn[nH]n4)cc3)n2)C1 is ____.
7.00 to 8.00

====

Here, each record is paired with measured pIC50 data.
Target: ITK (Homo sapiens)
Sequence (Q08881 1-620): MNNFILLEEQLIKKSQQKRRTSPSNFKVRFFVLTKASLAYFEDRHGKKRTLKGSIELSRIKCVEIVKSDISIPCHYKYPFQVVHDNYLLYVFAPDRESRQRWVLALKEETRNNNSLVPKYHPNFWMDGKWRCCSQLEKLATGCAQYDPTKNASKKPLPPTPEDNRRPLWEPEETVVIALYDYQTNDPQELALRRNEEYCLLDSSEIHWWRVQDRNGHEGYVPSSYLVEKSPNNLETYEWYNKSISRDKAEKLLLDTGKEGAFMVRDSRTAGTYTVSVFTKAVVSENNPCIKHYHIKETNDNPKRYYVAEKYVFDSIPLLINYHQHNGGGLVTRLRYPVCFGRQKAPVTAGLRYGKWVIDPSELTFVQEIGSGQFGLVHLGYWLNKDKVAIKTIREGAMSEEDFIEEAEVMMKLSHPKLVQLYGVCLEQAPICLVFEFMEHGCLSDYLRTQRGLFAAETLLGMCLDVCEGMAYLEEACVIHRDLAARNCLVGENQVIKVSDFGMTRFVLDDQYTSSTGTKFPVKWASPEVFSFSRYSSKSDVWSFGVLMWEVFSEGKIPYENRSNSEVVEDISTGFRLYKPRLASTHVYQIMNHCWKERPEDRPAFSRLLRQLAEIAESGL
Test: Inhibition of a panel of kinases, in vitro HotSpot kinase assay: ITK
Type: biochemical
Details: D-compounds panel data; 1 μM ATP
pIC50: −log10 of the molar value.

Answered examples (2):
record smiles: C[C@@H]1[C@H](NC(=O)c2ccc(C3CC3)cn2)CCCN1c1cnc(C(N)=O)c(Nc2cnn(C)c2)n1
obs value: 6.00 to 7.00
//
record smiles: C[C@@H]1[C@H](NC(=O)c2ccc(C3CC3)cn2)CCCN1c1cnc(C(N)=O)c(Nc2ccc(N3CCN(C)CC3)cc2)n1
obs value: 6.00 to 7.00

Here's the next entry for you.
Fill blank: measured pIC50 of the molecule C[C@@H]1[C@H](NC(=O)c2ccc(C3CC3)cc2)CCCN1c1cnc(C(N)=O)c(Nc2cnn(CC#N)c2)n1 is ____.
6.00 to 7.00
